test: loss of swimming-algae plug formation – whole organism, Chlamydomonas reinhardtii, WT vs cilia-less mutant, absorbance, 96-well, primary screen (AID 463189); settings: Chlamydomonas reinhardtii gravitaxis, OD600 absorbance, 2 days; at 10 µM; hits give high values;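 also: 0% = wild type cc124 cells in DMSO and 100% = ciliumless bld1 mutant cells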
Measured inhibition, listed per entry.
Readout Name: inhibition (%)

compound="C[C@]12CC[C@H]3[C@@H](CCC4C[C@H](O)CC[C@@]43C)[C@@H]1CC[C@@H]2O (some centres not stated)" val=2.75
compound="NC(Cc1ccc(N(CCCl)CCCl)cc1)C(=O)O (configuration not stated)" val=3.86
compound=c1ccc(C2CC2)c(OCC2=NCCN2)c1 val=3.8
compound="CCCCSP1(=S)NCCCO1 (configuration not stated)" val=18.8
compound=CN1CCC(c2c[nH]c3ccc(O)cc23)CC1 val=4.07
compound="CCN1C[C@]2(C)CC[C@H](O)[C@@]34C5C[C@@H]6[C@@H](OC)C[C@@](O)(C5[C@H]6O)[C@@H](CC23)C14 (some centres not stated)" val=7.34
compound=O=C1CC[C@@]2(O)[C@H]3Cc4ccc(O)c5c4[C@@]2(CCN3CC2CC2)[C@H]1O5 val=17.1
compound=CCCCCCn1c(O)c(C=NCCN2CCCCC2)c(=O)[nH]c1=O val=12.8
compound=Clc1cc(I)cc(Cl)c1NC1=NCCN1 val=9.51
compound=CNC(=O)OCC[N+](C)(C)C val=-0.129
compound="CC(N)Cc1c[nH]c2ccc(OCc3cccs3)cc12 (configuration not stated)" val=5.48
compound=O=C1c2ccccc2C(=O)N1Cc1nc2ccccc2c(=O)n1-c1cccnc1 val=6.55
